System: MOLT-4 leukemia
Experiment: NCI tumour cell line growth inhibition, 48 h
readout: GI50

Past entries and their recorded results:
COC(=O)/C(=C\c1c(C)[nH]c2ccccc12)S(=O)(=O)c1ccccc1; 1.9 µM
Cc1[nH]c(/C=C2\C(=O)Nc3ccc(F)cc32)c(C)c1C(=O)NC[C@H](O)CN1CCOCC1; 2.61 µM
COc1ccc(/C=C\c2cc(OC)c(OC)c(OC)c2)cc1OCC(=O)Nc1nc2ccc(C(F)(F)F)cc2s1; 3.75 µM
Cc1nc2cccc(NCc3ccc(C(=O)NO)cc3)c2c(=O)n1-c1ccccc1; 2.28 µM
COc1ccc(-c2nc(-c3ccccc3)c(-c3ccccc3)n2C2CC2)cc1OC1CCCC1; 45.7 µM

Lab note: each molecule below needs its GI50 filled in.
1. Fc1ccc(-c2ccc(-c3nnc(-c4cc(F)c(Cl)cc4Cl)o3)o2)cc1Cl
2. COc1ccc2[nH]c(Cl)c(/C=C3/C(=O)N(C)c4ccccc43)c2c1
3. O=c1cc(-c2ccccc2)nc2n1CCN2Cc1ccccc1
4. O=C(C(Br)Br)C(Br)C(Br)c1ccccc1 (stereo not given)

24.2 µM
79.1 µM
20.2 µM
1.82 µM

Documented GI50 of O=C([CH-]C(=O)c1ccccc1)c1ccccc1.O=C([CH-]C(=O)c1ccccc1)c1ccccc1.[Nd+3].[OH-].[OH3+] : 3.88 µM

Recorded values, source PubChem BioAssay (NCI).
